# SYSTEM: human GLP-R (Homo sapiens)
# Construct: host or cells: CHO-K1 (cAMP Hunter)
# Sequence (P43220 24-463): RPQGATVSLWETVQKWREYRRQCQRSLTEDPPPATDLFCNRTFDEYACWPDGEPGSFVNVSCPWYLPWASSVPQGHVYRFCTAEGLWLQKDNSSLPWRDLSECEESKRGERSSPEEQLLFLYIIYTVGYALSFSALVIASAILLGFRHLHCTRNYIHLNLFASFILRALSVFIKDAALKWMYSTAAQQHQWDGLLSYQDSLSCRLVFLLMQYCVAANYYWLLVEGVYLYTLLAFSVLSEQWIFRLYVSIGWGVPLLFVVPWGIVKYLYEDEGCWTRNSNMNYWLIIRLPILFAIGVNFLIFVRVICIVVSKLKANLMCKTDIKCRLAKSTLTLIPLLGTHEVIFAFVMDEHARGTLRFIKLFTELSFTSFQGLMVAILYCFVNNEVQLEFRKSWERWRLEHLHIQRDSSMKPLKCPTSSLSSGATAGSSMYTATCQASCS
# EXPERIMENT NOTES: Cyclic AMP (cAMP) assay, cell-suspension format, stably expressed human GLP-1-receptor in CHO cells
# Type: cell-based
# PARTICULARS: comparative table
Starred links: 1 amine or outer side, 2 acyl side, 3 side chain; linkers in the order of their positions; H or OH if unused. Positions of bridges follow the written chain, without caps; N, C: chain ends. Non-standard residues stand in square brackets, D forms with d. Groups on a side chain read outwards from the residue. Chains are numbered I, II in the order given. *: point of attachment. γGlu = O=C(O)[C@H](CCC(=O)[*:2])N[*:1]; Desaminotyrosyl = O=C(CCc1ccc(O)cc1)*; Palmitoyl = CCCCCCCCCCCCCCCC(=O)*; X1 = O=C(C[*:1])[*:2]; Aib = CC(C)(N)C(=O)O
# label = yes if human GLP-R % max GLP-1 >= 90% else no

Previously resolved entries follow.
SUBSTANCE: I: Ac-[dY]ALGTFTSDK([γGlu-Palmitoyl])SKYLDERAAQDFVQWLLEGGPSSGAPPPSC-NH2 / II: GGGLPETGGSGS-OH (linker I:40-II:N via X1) [compound 12]
LABEL CLASS: yes

SUBSTANCE: I: Ac-[dY]AVGTFTSDK([γGlu-Palmitoyl])SKYLDERAAQDFVQWLLEGGPSSGAPPPSC-NH2 / II: GGGLPETGGSGS-OH (linker I:40-II:N via X1) [compound 13]
LABEL CLASS: no

SUBSTANCE: I: Desaminotyrosyl-AEGTFTSDK([γGlu-Palmitoyl])SKYLDERAAQDFVQWLLEGGPSSGAPPPSC-NH2 / II: GGGLPETGGSGS-OH (linker I:39-II:N via X1) [compound 11]
LABEL CLASS: no

Moving on to another substance below.
Dear colleague, could you confirm whether I: H-Y[Aib]EGTFTSDK([γGlu-γGlu-Palmitoyl])SIYLDKQAA[Aib]EFVNWLLAGGPSSGAPPPSC-NH2 / II: LPETGGSGS-OH (linker I:40-II:N via X1) [compound 10] has human GLP-R % max GLP-1 at or above 90%?
yes

###

human GCG-R % max GCG by entry:
# SYSTEM: human GCG-R (Homo sapiens, UniProt P47871)
# Construct: host or cells: CHO-K1 (cAMP Hunter)
# Sequence (P47871 26-477): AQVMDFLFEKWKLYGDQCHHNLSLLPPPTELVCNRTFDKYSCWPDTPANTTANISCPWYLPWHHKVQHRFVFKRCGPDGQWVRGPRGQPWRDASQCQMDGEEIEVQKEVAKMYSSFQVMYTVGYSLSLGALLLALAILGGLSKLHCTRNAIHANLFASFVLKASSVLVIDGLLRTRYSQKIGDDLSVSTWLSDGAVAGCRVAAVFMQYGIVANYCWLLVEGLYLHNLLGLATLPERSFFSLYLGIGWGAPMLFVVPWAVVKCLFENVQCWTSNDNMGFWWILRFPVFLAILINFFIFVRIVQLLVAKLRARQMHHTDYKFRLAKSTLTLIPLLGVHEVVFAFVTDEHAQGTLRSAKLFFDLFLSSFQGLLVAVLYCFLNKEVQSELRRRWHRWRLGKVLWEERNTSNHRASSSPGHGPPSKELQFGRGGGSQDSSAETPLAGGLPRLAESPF
# EXPERIMENT NOTES: Cyclic AMP (cAMP) assay, cell-suspension format, stably expressed human GCG-receptor in CHO cells
# Type: cell-based
# PARTICULARS: comparative table
Starred links: 1 amine or outer side, 2 acyl side, 3 side chain; linkers in the order of their positions; H or OH if unused. Positions of bridges follow the written chain, without caps; N, C: chain ends. Non-standard residues stand in square brackets, D forms with d. Groups on a side chain read outwards from the residue. Chains are numbered I, II in the order given. *: point of attachment. γGlu = O=C(O)[C@H](CCC(=O)[*:2])N[*:1]; Desaminotyrosyl = O=C(CCc1ccc(O)cc1)*; Palmitoyl = CCCCCCCCCCCCCCCC(=O)*; X1 = O=C(C[*:1])[*:2]; Aib = CC(C)(N)C(=O)O
Remember to put the unit after the number in your answer.

Completed entries (count: 2):
SUBSTANCE: I: Ac-[dY]ALGTFTSDK([γGlu-Palmitoyl])SKYLDERAAQDFVQWLLEGGPSSGAPPPSC-NH2 / II: GGGLPETGGSGS-OH (linker I:40-II:N via X1) [compound 12]
human GCG-R % max GCG: 100%
--
SUBSTANCE: I: Ac-[dY]AVGTFTSDK([γGlu-Palmitoyl])SKYLDERAAQDFVQWLLEGGPSSGAPPPSC-NH2 / II: GGGLPETGGSGS-OH (linker I:40-II:N via X1) [compound 13]
human GCG-R % max GCG: 99%

Lab note: need human GCG-R % max GCG for I: H-Y[Aib]EGTFTSDK([γGlu-γGlu-Palmitoyl])SIYLDKQAA[Aib]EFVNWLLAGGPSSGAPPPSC-NH2 / II: GGGLPETGGSGS-OH (linker I:40-II:N via X1) [compound 9] on human GCG-R (Homo sapiens, UniProt P47871), anyone have it?
109%

Lab note: need human GCG-R % max GCG for I: Desaminotyrosyl-AEGTFTSDK([γGlu-Palmitoyl])SKYLDERAAQDFVQWLLEGGPSSGAPPPSC-NH2 / II: GGGLPETGGSGS-OH (linker I:39-II:N via X1) [compound 11] on human GCG-R (Homo sapiens, UniProt P47871), anyone have it?
28%

Lab note: need human GCG-R % max GCG for I: H-Y[Aib]EGTFTSDK([γGlu-γGlu-Palmitoyl])SIYLDKQAA[Aib]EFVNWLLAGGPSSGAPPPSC-NH2 / II: LPETGGSGS-OH (linker I:40-II:N via X1) [compound 10] on human GCG-R (Homo sapiens, UniProt P47871), anyone have it?
98%
